- Assayed System: canine IL-31RA expressed on HEK-Blue STAT3 canine IL-31R reporter cells (with canine OSMR) (canine)
- Protocol Text: cell-based or functional assay
Listed binders paired with reported Mean IC50 (nM) (n = 3), HEK-Blue cell-based SEAP assay
Property Measured: Mean IC50 (nM) (n = 3), HEK-Blue cell-based SEAP assay

Binder: 8D3-VH-N/8D3-VL-Ev2 caninized antibody (antibody, V domains shown) VH: EVTLQESGPGLVKPSQTLSLTCVASGFSIKSSFIHWLRQRPGRGLEWIGYIDPLQGGTEYNPVFQGRISITADTAKNQVSLQLSSMTTEDTAVYYCARYYYAQSHFDAWGQGTLVTVSS VL: RIVMTQSPGSLAGSVGESVSINCKSSQSVTNDVTWYQQKPGEAPKVLIHYASQRYSGVPARFSGSGYGTDFTLTINNLQAEDVGDYFCQQDYASPFTFGQGTKLEIK
Reported Value: 0.54
--
Binder: 8D3-VH-Lv2/8D3-VL-E caninized antibody (antibody, V domains shown) VH: EVTLQESGPGLVKPSQTLSLTCVASGFSIKSSFIHWLRQRPGRGLEWIGRIDPLQGATEYNPVFQGRLSITADTAKNQVSLQLSSMTTEDTAVYYCARYHYAQSHFDAWGQGTLVTVSS VL: RIVMTQSPGSLAVSVGESVSINCKSSQSVTNDVTWYQWKPGEAPKVLITYASIRYSGVPARFSGSGYGTDFTLTINNLQAEDVGDYFCQQDYASPFTFGQGTKLEIK
Reported Value: 0.49
--
Binder: 8D3-VH-Lv2/8D3-VL-H caninized antibody (antibody, V domains shown) VH: EVTLQESGPGLVKPSQTLSLTCVASGFSIKSSFIHWLRQRPGRGLEWIGRIDPLQGATEYNPVFQGRLSITADTAKNQVSLQLSSMTTEDTAVYYCARYHYAQSHFDAWGQGTLVTVSS VL: RIVMTQSPGSLAGSVGESVSINCKSSQSVTNDLTWYQQKPGEAPKVLITYASQRYTGVPARFSGSGYGTDFTLTINNLQAEDVGDYFCQQDYASPFTFGQGTKLEIK
Reported Value: 0.54
--
Binder: 8D3-clone7v2-VH/8D3-clone 7-VL caninized antibody (antibody, V domains shown) VH: EVTLQESGPGLVKPSQTLSLTCVASGFSIKSSFIHWLRQRPGRGLEWIGRIDPLQGGTEYNPVFQGRISITADTTKNQVSLQLSSMTTEDTAVYYCARYYYAQSHFDAWGQGTLVTVSS VL: RIVMTQSPGSLAGSAGESVSINCKSSQSVTNDLTWYQQKPGEAPKVLIHYASQRYTGVPARFSGSGYGTDFTLTINNLQAEDVGVYFCQQDYSSPFTFGQGTKLEIK
Reported Value: 0.44
--
Binder: 8D3-VH-N/8D3-VL-E caninized antibody (antibody, V domains shown) VH: EVTLQESGPGLVKPSQTLSLTCVASGFSIKSSFIHWLRQRPGRGLEWIGYIDPLQGGTEYNPVFQGRISITADTAKNQVSLQLSSMTTEDTAVYYCARYYYAQSHFDAWGQGTLVTVSS VL: RIVMTQSPGSLAVSVGESVSINCKSSQSVTNDVTWYQWKPGEAPKVLITYASIRYSGVPARFSGSGYGTDFTLTINNLQAEDVGDYFCQQDYASPFTFGQGTKLEIK
Reported Value: 0.44
